Numbers sourced from paper PMC9352680.

Listing of entries alongside the reported Kd.
# study.target: T1, PUF4 RNA-binding domain (Saccharomyces cerevisiae, UniProt P25339 537-888)
# T1 sequence: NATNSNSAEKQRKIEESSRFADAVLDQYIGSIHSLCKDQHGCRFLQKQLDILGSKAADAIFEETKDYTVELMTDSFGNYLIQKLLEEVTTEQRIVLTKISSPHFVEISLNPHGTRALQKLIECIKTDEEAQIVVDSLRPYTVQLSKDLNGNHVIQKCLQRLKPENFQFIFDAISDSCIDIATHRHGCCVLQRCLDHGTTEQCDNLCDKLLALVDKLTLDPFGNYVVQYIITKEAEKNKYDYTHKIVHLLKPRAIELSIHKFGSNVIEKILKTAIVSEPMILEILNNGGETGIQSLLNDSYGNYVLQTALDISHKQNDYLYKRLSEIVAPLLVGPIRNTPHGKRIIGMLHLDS
# assay.info: Mg; RNA-MaP; 20 mM Na-HEPES pH 7.4, 30 mM KOAc, 0.75 mM MgCl2, 0.1% Tween-20, 5% glycerol, 0.1 mg/mL BSA, 2 mM DTT; 25 C; 0.0125-409.6 nM protein
# experimental.parameters: tags: N-His6-TEV cleaved; C-SNAP kept, Cy3B-labelled; label: tethered on chip by stalled RNA polymerase
Respond with the bare value in nM.

// below: answered binders
| binder | Kd [nM] |
| --- | --- |
| Id_ii_S4_P5E.3_K5.2_C5.2_[T-1A]_H5.2_A5.1_F5.1_T5.2_[T11A]_[A12T] (ssRNA) RNA: UUUGACAACUGAUCGUUCUUUCUCAUAUAUUAUUAAUUUCUUUCUCGAUCAGUUGUCUUU | 214 |
| UCUCUUGUACACUUAUUAGCUCUCUU (ssRNA) [Id_ii_S1_P5E.4_K5.3_C5.2_[C-2G]_H5.3_A5.1_F5.1_T5.2_[T11G]_[A12C]] | 5.16 |
| Ia_S2_P5E.1_K5.1_C5.1_H5.1_A5.1_F5.1_[A10C]_T5.1 (ssRNA) RNA: UUUGAUUAAUAUGAUAUCGUUCUUUCUUGUAUUAUUCUUCUUUCUCGAUAUCAUAUUAAUCUUU | 12.7 |

// next entry
# query: Kd of entry Id_ii_S2_P3E.2_K3.1_C3.2_[T-1C]_H3.1_A3.1_F3.1_T3.2_[T9G]_[A10T] (ssRNA) RNA: UUUGAUUAAUAUGAUAUCGUUCUUUCUCCUGUAUAUAGUUUCUUUCUCGAUAUCAUAUUAAUCUUU
2.32
